# key: entry, value: apparent KD of MS2 coat protein
Tested on: MS2 coat protein
Assay: apparent KD of MS2 coat protein; designed switch direction (-1 OFF switch, 1 ON switch): -1; higher = weaker reporter binding
Conditions: Eterna round: R95; input ligand: microRNA oligo, concentration not stated
The figure you give is taken to be in nM; do not add the unit.

Examples with their reported apparent KD of MS2 coat protein follow.
Suppose we examine the sequence GGUCCACGAGGAUAUCGAUUAUAGUACAUGAGGAUCACCCAUGUUGUCCAGGUUUCGUUUCGAGAAGGCGUGGGUU [LRO-Ex5-01] (puzzle: Exclusion 5) ; what apparent KD of MS2 coat protein value has been reported?
88.1

Note, next up: CCUCGACAUGAGGAUCACCCAUGUCAGGAUAUUGUGUUUUGGGUUUUUUACCUUUUGGCAAGAAGGGAUGUGUG [LRO-Excl1-19] (puzzle: Exclusion 1)
14.4

New cases:
Suppose we examine the sequence CAUGAGGUAGGAUAUACGAUAAUAUAGGGUAGAUAUAUAACACAUGAGGAUCACCCAUGUAGAAGGACCAGUAC [Mat - Exclusion 2 - Mod of my Tesla design - D68] (puzzle: Exclusion 2) ; what apparent KD of MS2 coat protein value has been reported?
35.9

Note, next up: AAACAACAUGAGGAUCACCCAUGUAAGGAUAUGCGAGUUGGGUCAACGAAGGUUGAAGGCAGAAGGUAUAGGGU [Erxevees] (puzzle: Exclusion 1)
49.3

Note, next up: GGUACUAUCACCUGAGUGGUAGUGCUAUAAGCUUGUGAUACAUGAGGAUCACCCAUGUCCUCAUUUGCUCGUCUUAU [JL-sv3-2.29 JL mod] (puzzle: Sensor v3, turn-off variant 2)
610

Note, next up: AGUCUGCUAGGAUAUACAUGAGGAUCACCCAUGUCUAUCAAAAGACUAUUAACCUGGUGUAGAAGGAGCUUGUA [Lasodiar] (puzzle: Exclusion 3)
10.7
